System: LOX IMVI melanoma
Assay: NCI-60 one-dose screen, 48 h
Details: 10 µM unless noted
The panel holds about 83,000 compounds, 20% with a hit somewhere; the sample as a whole holds those more often. The source made the active and inactive calls. Rule for the calls: active = growth percent below 10; inactive = the rest.
Field 'call' accepts Y = active, N = inactive

Enquiry: What call does the record list for CC(c1ccc(-n2cccn2)cc1)c1cnc(N2CCc3ccc(C(N)=O)cc3C2)s1 (centres undefined) ?
Return: N

Enquiry: What call does the record list for `CCCCCCCCc1cc[n+](CC(=O)c2ccc(Br)cc2)cc1` ?
Return: Y

Enquiry: What call does the record list for `Fc1ccc(Nc2nc(Nc3ccc(-c4nc5ccccc5[nH]4)cc3)c3cn[nH]c3n2)cc1` ?
Return: Y

Enquiry: What call does the record list for `C[C@H]1[C@H]2C3=CC[C@@H]4[C@@]5(C)C/C(=C/c6ccncc6)C(=O)C(C)(C)[C@@H]5CC[C@@]4(C)[C@]3(C)CC[C@@]2(C(=O)N2CCN(C)CC2)CC[C@@H]1C` ?
Return: N

----------
System: SF-539 CNS
Experiment: NCI-60 one-dose screen, 48 h
Settings: 10 µM unless noted
About 83,000 compounds went through this panel and 20% of them were active in at least one assay; those are over-represented in the sample as a whole. The source made the active and inactive calls. How the source made its calls: active means growth percent below 10; inactive means the rest.
Field 'call' accepts active, inactive

Known results for molecules:
molecule: COc1cc2nc(Nc3ccc(F)cc3)nc(N)c2cc1OC
assay.target: SF-539 CNS
group.label: inactive

molecule: CCNCCNc1cc(C2CCCC2)c(C#N)c2nc3ccccc3n12
assay.target: SF-539 CNS
group.label: active

molecule: CCN(CC)CCCC(C)NCc1ccccc1 (stereo unspecified)
assay.target: SF-539 CNS
group.label: inactive

molecule: O=C1/C(=C/c2ccc([N+](=O)[O-])cc2)COc2ccc(O)c(O)c21
assay.target: SF-539 CNS
group.label: active

molecule: Clc1ccc(-c2nc(NCCc3ccccc3)nc3c(NCCc4ccccc4)cnn23)cc1
assay.target: SF-539 CNS
group.label: inactive

Enquiry: What call does the record list for O=C1CSC(c2ccccc2O)N1c1nnc(Cn2cnnc2)o1 (stereo unspecified) ?
Return: inactive

----------
System: U251 CNS
Assay: NCI-60 one-dose screen, 48 h (100 = growth as untreated, 0 = no growth, -100 = all killed)
Conditions: 10 µM unless noted
This is part of a sample that, as a whole, favours compounds with a hit. Of some 83,000 tested, about 20% had one in any assay. Calls of active or inactive are those of the source. How the source made its calls: active means growth percent below 10; inactive means the rest.
measured.quantity: growth

compound: Cc1nc(Nc2ccc(N)cc2)c2ccccc2n1
assay.target: U251 CNS
growth: 99.1% (inactive)

// each compound listed below needs its growth
1. C[C@@H]1C(=O)N(C[C@H](Cc2ccccc2)NC(=O)OCc2ccccc2)[C@]1(Cc1ccccc1)C(=O)OC(C)(C)C
2. COc1cc2c(=O)n(CCCn3ccnc3)c3c4cc5c(cc4ccc3c2cc1OC)OCO5
3. CS(=O)(=O)c1ccc(-c2nc3cc(Cl)ccc3n2CC(=O)N/N=C/c2ccc(Cl)cc2)cc1
4. C[C@@H]1C(=O)N(C[C@H](Cc2ccccc2)N(Cc2ccccc2)Cc2ccccc2)[C@]1(Cc1ccccc1)C(=O)OC(C)(C)C
5. CCNCCNc1cc(-c2ccc(F)cc2)c(C#N)c2nc3ccccc3n12
6. C=C(C)C1CCC(=C)C2CCC3(C)OC12/C=C(/COC(C)=O)CCC3O (stereo not drawn)
7. O=C1CSC(c2ccccc2)N1c1ccccc1 (stereo not drawn)

Return:
63.2% (inactive)
-2.14% (active)
30.5% (inactive)
49.2% (inactive)
17.1% (inactive)
89% (inactive)
102% (inactive)
